- System: SOD in serum and BALF of asthma model mouse
- test-name: Effect on SOD in serum and BALF of asthma model mouse
- Format: in vivo
- measurement-context: BALF, ig 7 d, dose/kg: dexamethasone 2.0 mg, Test group 1 50, 2 25, picrinine 5.0, vallesamine 3.0, scholaricine 3.0, 19-epi-scholaricine 3.5 mg, x ± SD
observable: SOD lavage fluid (U/mL)
Kindly answer with a numeric value in U/mL, unit omitted.

Would you kindly share the measured SOD lavage fluid for `C/C=C1/CN2CC[C@@H]1[C@@](CO)(C(=O)OC)c1[nH]c3ccccc3c1C2` ?
70.88

---

- Tested on: SOD in serum and homogenate of COPD model mouse
- test-name: Effect on SOD in serum and homogenate of COPD model mouse
- Assay type: in vivo
- measurement-context: serum, ig 7 d, dose/kg: dexamethasone 1 mg, Test group 1 50, 2 25, 3 10, picrinine 10, vallesamine 6, scholaricine 7, 19-epi-scholaricine 2 mg, x ± SD
observable: SOD Serum (U/mL)
Kindly answer with a numeric value in U/mL, unit omitted.

Take a look at these entries with their results.
C/C=C1/CN2CC[C@@H]1[C@@](CO)(C(=O)OC)c1[nH]c3ccccc3c1C2    91.72
C[C@@H]1C[C@H]2[C@@H]3CCC4=CC(=O)C=C[C@]4(C)[C@@]3(F)[C@@H](O)C[C@]2(C)[C@@]1(O)C(=O)CO [dexamethasone, reference compound]    86.85
COC(=O)C1=C2Nc3c(O)cccc3[C@@]23CCN2C[C@@H]([C@@H](C)O)[C@@H]1C[C@H]23    93.61

Turning now to a further record.
Would you kindly share the measured SOD Serum for `C/C=C1/CN2[C@@H]3C[C@@]45c6ccccc6N[C@]4(O3)[C@@H]2C[C@@H]1[C@H]5C(=O)OC` ?
91.15

---

- Tested on: SOD in serum and BALF of asthma model mouse
- test-name: Effect on SOD in serum and BALF of asthma model mouse
- Type: in vivo
- measurement-context: BALF, ig 7 d, dose/kg: dexamethasone 2.0 mg, Test group 1 50, 2 25, picrinine 5.0, vallesamine 3.0, scholaricine 3.0, 19-epi-scholaricine 3.5 mg, x ± SD
observable: SOD lavage fluid

Take a look at these entries with their results.
C[C@@H]1C[C@H]2[C@@H]3CCC4=CC(=O)C=C[C@]4(C)[C@@]3(F)[C@@H](O)C[C@]2(C)[C@@]1(O)C(=O)CO [dexamethasone, reference compound]    76.57 ± 12.52 U/mL
COC(=O)C1=C2Nc3c(O)cccc3[C@@]23CCN2C[C@@H]([C@H](C)O)[C@@H]1C[C@H]23 [19-epi-scholaricine, 19-epischolaricine]    71.82 ± 12.39 U/mL

Would you kindly share the measured SOD lavage fluid for `COC(=O)C1=C2Nc3c(O)cccc3[C@@]23CCN2C[C@@H]([C@@H](C)O)[C@@H]1C[C@H]23` ?
76.78 ± 8.01 U/mL

Would you kindly share the measured SOD lavage fluid for `C/C=C1/CN2[C@@H]3C[C@@]45c6ccccc6N[C@]4(O3)[C@@H]2C[C@@H]1[C@H]5C(=O)OC` ?
62.32 ± 8.22 U/mL
